Reference source for all entries: PubChem BioAssay (NCI)

System: SF-295 CNS
experiment: NCI-60 one-dose screen, 48 h
cond: 10 µM unless noted
This is part of a sample that, as a whole, favours compounds with a hit. Of some 83,000 tested, about 20% had one in any assay. Calls of active or inactive are those of the source. How the source made its calls: active means growth percent below 10; inactive means the rest.
Pick from active, inactive when you respond.

molecule	discrete.label
O=C1CSC(c2ccccc2O)N1c1nnc(Cn2cnnc2)o1 (stereo not given)	inactive
COc1cc2nc(Nc3ccc(F)cc3)nc(N)c2cc1OC	active

# lookup: test call for CC1=NN(c2cccc(Cl)c2)C(=O)/C1=C\c1cn(CC(O)CN2CCCCC2)c2ccccc12 (stereo not given)
inactive

---

System: MALME-3M melanoma
experiment: NCI-60 one-dose screen, 48 h (100 = growth as untreated, 0 = no growth, -100 = all killed)
cond: 10 µM unless noted
Compounds without any hit were thinned out: in the full panel of roughly 83,000, 20% have a hit.
The following molecules are shown together with reported growth values.
Please respond with the number in % and leave the unit unwritten.

Record excerpt, results attached:
molecule	growth [%]
CCN(CC)CCOc1ccc(/C(=C(\C)c2ccc(F)c(OC)c2)c2ccc(Cl)cc2)cc1	-81.6
Cc1nc(Nc2ccccn2)sc1C(=O)/C=C/c1ccc(Br)cc1	77.1
CCCCCCCCn1cc(C2=C(c3coc4ccc(OC)cc34)C(=O)NC2=O)c2ccccc21	89.5
CCC(O)(C(c1ccccc1)c1ccccn1)C(c1ccccc1)c1ccccn1 (stereo unspecified)	94.4
CCNCCNc1cc(-c2ccc(C(=O)OC)cc2)c(C#N)c2nc3ccccc3n12	88.5

Data request, read-out growth, for `CSc1ncc(C)c(Nc2ccc(Cl)cc2)n1`
122

What value of growth has been recorded for this entry: `c1ccc2c(c1)nc(-n1ccnc1)c1nc3ccccc3n12`
92.9

Query: growth; subject: `COc1ccc(-c2cc(-c3cc(OC)ccc3O)[nH]c(=O)c2C#N)cc1`
60.7

Item `CCCCNCC(=O)Nc1ccc(C(=O)OCC)cc1` has what recorded growth?
106

Consider the molecule shown here: `COc1cc(/C=C/C(=O)c2ccc(Nc3nc(Nc4ccccc4)nc(Nc4ccc(Cl)cc4)n3)cc2)cc(OC)c1OC` What is its recorded growth?
44.3

Which growth value belongs to O=C(O)CC1Sc2ccccc2NC1=O (stereo unspecified) ?
106

---

Tested on: SN12C renal
experiment: NCI-60 one-dose screen, 48 h
cond: 10 µM unless noted
About 83,000 compounds went through this panel and 20% of them were active in at least one assay; those are over-represented in the sample as a whole. Calls of active or inactive are those of the source. Rule for the calls: active = growth percent below 10; inactive = the rest.
// classify into YES (active), NO (inactive)

Record excerpt, results attached:
compound	discrete.label
CCN(CC)CC(O)CNc1c2ccc(Cl)cc2nc2ccc(OC)cc12 (centres undefined)	YES
COc1cc(C2CC(c3ccc(Nc4nc(Nc5ccc(F)cc5)nc(Nc5ccc(Cl)cc5)n4)cc3)=NN2C(C)=O)cc(OC)c1OC (centres undefined)	NO

For `N=C(N)c1ccc(-c2ccc(-c3ccc(Cl)c(Cl)c3)o2)nc1` , which call appears in the assay record?
YES

Write down the call the test reported for this compound. Item: `COC(=O)c1ccc2oc(NC(=O)c3ccc(N4CCOCC4)c([N+](=O)[O-])c3)nc2c1`
NO

Called result for `CCOc1ccc(-c2nc3ccc(-c4nc5ccc(N6CCN(C)CC6)cc5[nH]4)cc3[nH]2)cc1OCC`
NO

What is the recorded call for this compound in the test? `C[C@H]1[C@H]2C3=CC[C@@H]4[C@@]5(C)C/C(=C/c6ccncc6)C(=O)C(C)(C)[C@@H]5CC[C@@]4(C)[C@]3(C)CC[C@@]2(C(=O)N2CCN(C)CC2)CC[C@@H]1C`
NO

Give the logged outcome of this assay for the following compound: `O=C1Nc2ccc(Cl)cc2/C1=N/N=C/c1c[nH]c2ccccc12`
NO

GET /call?item= `CC(C)n1nc(C#Cc2cccc(O)c2)c2c(N)ncnc21` returns the recorded outcome of this test.
YES

Which outcome did this test record for the compound CCOc1cc(C2C(Cl)C(=O)N2n2cnnc2)ccc1O (centres undefined) ?
NO
